Biological target: beta-catenin (human)
Sequence (B6V8E6 146-665 limits assumed): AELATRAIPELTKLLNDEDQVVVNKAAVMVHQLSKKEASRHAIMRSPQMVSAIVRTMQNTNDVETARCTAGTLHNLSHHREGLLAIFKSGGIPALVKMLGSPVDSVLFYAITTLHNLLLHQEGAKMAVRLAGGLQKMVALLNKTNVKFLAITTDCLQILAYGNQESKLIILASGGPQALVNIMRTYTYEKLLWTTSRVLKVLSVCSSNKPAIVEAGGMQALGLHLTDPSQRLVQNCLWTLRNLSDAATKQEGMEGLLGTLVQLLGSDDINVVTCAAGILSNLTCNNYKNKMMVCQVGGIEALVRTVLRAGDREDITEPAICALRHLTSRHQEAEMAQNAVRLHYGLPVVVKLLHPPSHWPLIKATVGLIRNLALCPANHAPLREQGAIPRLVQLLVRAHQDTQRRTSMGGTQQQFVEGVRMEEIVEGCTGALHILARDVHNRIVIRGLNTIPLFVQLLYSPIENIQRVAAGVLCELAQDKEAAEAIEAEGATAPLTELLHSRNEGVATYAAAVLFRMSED
Assay: cell-based or functional assay
*1 amine or outer side, *2 acyl side, *3 side chain or, on linkers, in order; H or OH if unused. Bridges are numbered along the chain shown (N, C = ends). Primed or numbered codes have the meaning given here. [ ]: non-standard residue; d: D form. B5(4) = 2-amino-2-(pent-4-en-1-yl)hept-6-enoic acid, stapled through each of its two olefin groups with other olefin-containing amino acid residues, O=C(C(CCCC=[*:3])(CCCC=[*:4])N[*:1])[*:2]; PyrS2″ = (S)-3-amino-1-((pent-4-en-1-yloxy)carbonyl)pyrrolidine-3-carboxylic acid (olefin stapling residue), C=CCCCOC(=O)N1CC[C@@](N[*:1])(C(=O)[*:2])C1; PyrS2(3) = (S)-3-amino-1-((pent-4-en-1-yloxy)carbonyl)pyrrolidine-3-carboxylic acid, olefin residue, C=CCCCOC(=O)N1CC[C@@](N[*:1])(C(=O)[*:2])C1; B5(3) = 2-amino-2-(pent-4-en-1-yl)hept-6-enoic acid, two olefin arms, C=CCCCC(CCCC=C)(N[*:1])C(=O)[*:2]; 2F3MeF″ = aromatic residue, Cc1cccc(C[C@H](N[*:1])C(=O)[*:2])c1F; Phe(3-COOH) = N[C@@H](Cc1cccc(C(=O)O)c1)C(=O)O; 2F3MeF = Cc1cccc(C[C@H](N[*:1])C(=O)[*:2])c1F; Bta = N[C@@H](Cc1csc2ccccc12)C(=O)O; αAllylPro = C=CC[C@@]1(C(=O)O)CCCN1; tBuAla = CC(C)(C)C[C@H](N)C(=O)O; TfeGA = not defined here; AsnR = not defined here; GlnR = not defined here
recorded metric: NanoBRET Abs IC50

[
  {
    "binder": "Ac-[αAllylPro]D[tBuAla][B5(3)]D[Phe(3-COOH)]AAFK[PyrS2(3)][2F3MeF″][Bta][AsnR]A-NH2 (bridge 10-14; not fully specified (bridges); printed as Ac-PL3-Asp-Npg-B5-Asp-3COOHF-Ala-Ala-Phe-Lys*3-PyrS2-2F3MeF-BztA-AsnR*3-Ala-NH2; reading uncertain) [I-58]",
    "result": "> 10 µM"
  }
]

// next item, NanoBRET Abs IC50 requested
Form field: reported NanoBRET Abs IC50 of Ac-[αAllylPro]D[tBuAla][B5(4)]D[TfeGA]LAFK[PyrS2″][2F3MeF][Bta][GlnR]A-NH2 (bridge 10-14; not fully specified (bridges); reading uncertain; also: Lys*3 and GlnR*3 marked *3) [I-122] > 10 µM
